Test system: Malme-3M
assay_info: NCI tumour cell line growth inhibition, 48 h
The source made the active and inactive calls. Cut-off read from the data, not from the text of the source: active = GI50 up to about 1.1 µM and inactive = higher.
Exercise: for every item that follows, state its recorded GI50.

Consider the following items and state reported GI50 for each.
1. O=C(Cn1ccnc1[N+](=O)[O-])N(CCO)CCO
2. CC(=O)OCC1OC(N2C(=O)C(=O)c3cc(C)ccc32)C(OC(C)=O)C(OC(C)=O)C1OC(C)=O (centres undefined)
3. O=[N+]([O-])C(=C/c1cccc2ccccc12)/C(=C\c1cccc2ccccc12)[N+](=O)[O-]
4. COC(=O)[C@@H](OC(C)=O)[C@@H](OC(C)=O)c1nnc2ccc(Cl)nn12
5. CC(C)/C(Cl)=N/OC(=O)Nc1ccc(OC(F)(F)F)cc1
6. CC/C(=N\NC(=O)c1cccnc1)c1ccc2c(c1)OCCO2
7. CO[C@@H]1/C=C\C=C(/C)C(=O)NC2=CC(=O)C(NCCN(C)C)=C(C[C@@H](C)C[C@@H](OC)[C@@H](O)[C@H](C)/C=C(\C)[C@H]1OC(N)=O)C2=O

stdout:
["135 µM (inactive)", "> 100 µM (inactive)", "2.07 µM (inactive)", "> 100 µM (inactive)", "2.48 µM (inactive)", "28.4 µM (inactive)", "0.013 µM (active)"]

Please supply GI50 for each of the following items, keeping them in order.
1. Cc1ccccc1OC(C)C(=O)NN1C(=O)CSC1c1ccc(Cl)cc1 (centres undefined)
2. Cc1occc(=O)c1O [MALTOL]

stdout:
["25.7 µM (inactive)", "> 100 µM (inactive)"]
